target: Serotonin 2 (5-HT2) receptor (Rattus norvegicus, UniProt P30994+P08909+P14842); test: isplacement of [3H]DOB from rat cortex homogenate 5-hydroxytryptamine 2 receptor
result.type: pIC50
Respond using a number only.

IN: Any idea what its pIC50 is? The compound is Cc1noc(Cc2ccc3[nH]cc(CCN)c3c2)n1
OUT: 5.5

IN: Any idea what its pIC50 is? The compound is CN(C)CCc1c[nH]c2ccc(CCc3nc(N)no3)cc12
OUT: 6.7

IN: Any idea what its pIC50 is? The compound is NCCc1c[nH]c2ccc(Cc3nc(N)no3)cc12
OUT: 6.1

IN: Any idea what its pIC50 is? The compound is CS(=O)(=O)Nc1ccc(Cc2noc(-c3ccc4[nH]cc(CCN)c4c3)n2)cc1 [L-694247]
OUT: 6.5

IN: Any idea what its pIC50 is? The compound is Cc1noc(-c2ccc3[nH]cc(CCN)c3c2)n1
OUT: 5.8

IN: Any idea what its pIC50 is? The compound is CN(C)CCc1c[nH]c2ccc(Cc3nc(N)ns3)cc12
OUT: 6.9
